target: T1, human CD3ε and CD3δ co-expressed on HEK293F cells (human, UniProt P07766 23-207; P04234 22-171); test: flow cytometry, transfected HEK293F
T1 construct: also called huCD3ε/δ (transfected cells); huCD3e + huCD3d
T1 sequence (P07766 23-207 limits assumed, stated change not applied, chain 1 of 2): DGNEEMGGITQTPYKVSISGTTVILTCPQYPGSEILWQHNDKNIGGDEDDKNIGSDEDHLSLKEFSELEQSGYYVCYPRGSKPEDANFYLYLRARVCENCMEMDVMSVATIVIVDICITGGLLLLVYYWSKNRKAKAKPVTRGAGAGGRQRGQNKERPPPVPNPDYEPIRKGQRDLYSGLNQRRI
T1 sequence (P04234 22-171 limits assumed, stated change not applied, chain 2 of 2): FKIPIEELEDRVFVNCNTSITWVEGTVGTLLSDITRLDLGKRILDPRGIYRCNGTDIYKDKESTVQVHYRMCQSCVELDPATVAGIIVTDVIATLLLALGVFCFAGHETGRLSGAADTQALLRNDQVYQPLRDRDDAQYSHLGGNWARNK
reported-property: % antibody positive transfected cells (%)
Just the number in %, nothing appended.

binder="1E6-C9 Fab (Fab, V domains shown, also called 1E6-B8; 1E6-B8/B9-C9-Fab) VH: EVQLVETGGSLVQPGKSLKLTCATSGFTFSYAWMHWVRQSPDKQLQWVAQIKAKSNNYATYYAESVEGRFTISRDDSKSSVYLQMNSLKEEDTAIYYCRGVYYGLLGLDAWGQGTSVTVSS VL: DVVMTQTPVSLSVRLGGQVSISCRSSQSLVHNNGNTYLSWFLQKPGQSPQLLIYKVSNRFSGISDRFSGSASGTDFTLKISRVEPDDLGVYYCGQGTHYPFTFGSGTKLEIK" reported_property="% antibody positive transfected cells" value=91.7
binder="12G3-E8 Fab (Fab, V domains shown) VH: EVRVVETGGSLVQPGKSLKLTCATSGFTFSLAWMHWVRQSPEKKLEWVAQIKDKANNYATYYAESVKGRFTISRDDSKRSVYLQMNRLKEEDTAIYYCRGVYYGFSMTPFDYWGQGVMVTVSS VL: DVAMTQTPVSLSVSLGGQVSISCRSSQSLVHNNGNTYLSWYLQKPGQSPQVLIYKVSNRFSGISDRFSGSGSGADFTLKISRVEPDDLGVYYCGQGTQYPFTFGAGTKLELK" reported_property="% antibody positive transfected cells" value=96.7

Next up:
Asked: // returns reported % antibody positive transfected cells for input 18F5-H10 Fab (Fab, V domains shown, also called BDX-18F5-H10) VH: EVQVVETGGSLVQPGKSLKLTCATSGFTFTNAWMHWVRRSPEKQLEWVAQIKDKSNNYATYYAESVKGRFTISRDDSKSSIYLQMNSLKEEDTAIYYCRYVHYRFAYALDAWGRGTSVSVSS VL: DVLMTQTPVSLSVSLGGQVSISCRSSQSLVHTNGNTYLSWYLQKPGQSPQLLIYKVSNRLSGISDRFSGSGSGTDFTLKISRVEPDDLGVYYCGQGTHYPFTFGAGTKLELKR
Given back: 70.4
